- assayedTarget: Human rhinovirus A protease (Human rhinovirus sp.)
- Sequence (whole entry): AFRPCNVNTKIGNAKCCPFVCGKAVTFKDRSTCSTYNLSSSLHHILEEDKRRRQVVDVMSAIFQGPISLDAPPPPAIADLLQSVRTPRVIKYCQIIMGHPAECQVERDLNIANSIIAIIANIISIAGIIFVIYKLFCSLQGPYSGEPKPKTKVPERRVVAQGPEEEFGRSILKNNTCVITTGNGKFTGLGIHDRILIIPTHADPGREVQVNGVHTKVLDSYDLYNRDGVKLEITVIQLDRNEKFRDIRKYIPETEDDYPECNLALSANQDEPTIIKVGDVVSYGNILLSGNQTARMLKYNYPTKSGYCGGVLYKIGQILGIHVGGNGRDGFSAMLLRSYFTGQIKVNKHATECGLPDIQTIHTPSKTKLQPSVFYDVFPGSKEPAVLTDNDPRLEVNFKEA
- protocolSummary: Inhibitory activity against Human RhinoVirus serotype-14 3C Protease
- Format: functional
- conditionParameters: rhinovirus B14
propertyName: log10(k obs / 1) (log10 of the value in M⁻¹ s⁻¹)
All values: base-10 log of k obs / 1 in M⁻¹ s⁻¹.

Problem: I'd like to know its log10(k obs / 1). The molecule in question is CCOC(=O)/C=C/[C@H](CCC(N)=O)NC(=O)[C@H](Cc1ccccc1)N(C)C(=O)[C@H](CSc1ccccc1)NC(=O)SC1CCCC1
Solution: 4.57

Problem: Fill blank: measured log10(k obs / 1) of the molecule CCOC(=O)/C=C/[C@H](CCC(N)=O)NC(=O)[C@H](Cc1ccc(F)cc1)N(C)C(=O)[C@H](Cc1ccc2ccccc2c1)NC(=O)c1cc(C)on1 is ____.
Solution: 5.16

Problem: Item under review: CCOC(=O)/C=C/[C@H](C[C@@H]1CCCNC1=O)NC(=O)[C@H](Cc1ccc(F)cc1)N(C)C(=O)[C@H](CC(C)C)NC(=O)c1cc(C)on1 . Reported log10(k obs / 1)?
Solution: 5.79

Problem: Look at this molecule and give its reported log10(k obs / 1). CCOC(=O)/C=C/[C@H](CCC(N)=O)NC(=O)[C@H](Cc1ccc(F)cc1)N(C)C(=O)[C@H](Cc1cccc2ccccc12)NC(=O)c1cc(C)on1
Solution: 4.98

Problem: # lookup: log10(k obs / 1) of CCOC(=O)/C=C/[C@H](CCC(N)=O)NC(=O)[C@H](Cc1ccc(F)cc1)N(C)C(=O)[C@H](Cc1c[nH]cn1)NC(=O)c1cc(C)on1
Solution: 4.82

Problem: Which value of log10(k obs / 1) has been reported for CCOC(=O)/C=C/[C@H](CCC(N)=O)NC(=O)[C@H](Cc1ccccc1)NC(=O)[C@H](CC(C)C)NC(=O)OCc1ccccc1 in the records?
Solution: 4.40

====

- assayedTarget: Human rhinovirus A protease (Human rhinovirus sp.)
- protocolSummary: Inhibitory activity against Human RhinoVirus serotype-14 3C Protease
- Format: functional
- conditionParameters: rhinovirus B14
Provide the reported log10(k obs / 1) of each item.
For clarity, the numbers are log10 values of k obs / 1 expressed in M⁻¹ s⁻¹.

Problem: Dear colleague, I am looking for the recorded log10(k obs / 1) of the following compound: CCOC(=O)/C=C/[C@H](CCC(N)=O)NC(=O)[C@H](Cc1ccc(F)cc1)N(C)C(=O)[C@H](CC(C)C)NC(=O)c1cc(C)on1
Solution: 4.77

Problem: State the recorded log10(k obs / 1) for this entry: CCOC(=O)/C=C/[C@H](CCC(N)=O)NC(=O)[C@H](Cc1ccccc1)N(C)C(=O)[C@@H](NC(=O)SC1CCCC1)C(C)C
Solution: 4.35

Problem: Given the compound CCOC(=O)/C=C/[C@H](CCC(N)=O)NC(=O)[C@H](Cc1ccccc1)N(C)C(=O)[C@H](CC(C)C)NC(=O)SC1CCCC1 , what is its reported log10(k obs / 1)?
Solution: 4.24

Problem: For the compound CCOC(=O)/C=C/[C@H](CCC(N)=O)NC(=O)[C@H](Cc1ccccc1)NC(=O)[C@H](CC(C)C)N(C)C(=O)OCc1ccccc1 , what log10(k obs / 1) is on record?
Solution: 2.00

Problem: Recorded log10(k obs / 1) of CCOC(=O)/C=C/[C@H](CCC(N)=O)NC(=O)[C@H](Cc1ccccc1)N(C)C(=O)[C@H](CC(C)C)NC(=O)OCc1ccccc1 , please.
Solution: 3.72

Problem: Report log10(k obs / 1) for CCOC(=O)/C=C/[C@H](CCC(N)=O)NC(=O)[C@H](Cc1ccccc1)N(C)C(=O)[C@H](CC(C)C)NC(=O)c1cc(C)on1 please.
Solution: 5.03
